Molecular target: Signal peptidase I (Escherichia coli K-12, UniProt P00803)
Sequence (P00803 whole entry): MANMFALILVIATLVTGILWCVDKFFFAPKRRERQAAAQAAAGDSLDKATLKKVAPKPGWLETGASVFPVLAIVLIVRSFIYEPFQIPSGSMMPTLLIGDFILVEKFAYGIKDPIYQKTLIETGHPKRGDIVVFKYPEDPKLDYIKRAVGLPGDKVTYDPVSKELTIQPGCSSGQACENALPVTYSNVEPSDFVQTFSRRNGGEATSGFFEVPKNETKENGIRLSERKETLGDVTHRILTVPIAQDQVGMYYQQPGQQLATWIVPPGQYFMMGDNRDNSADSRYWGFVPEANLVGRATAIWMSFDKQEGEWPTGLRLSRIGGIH
measured.quantity: IC50
Answer shape: numeric part, then the unit.

CCCCCCC#Cc1cncc(C(=O)N[C@@H](CCCN)C(=O)N[C@H](C(=O)N[C@@H](C)C(=O)N[C@H]2Cc3cn(nn3)CCO[C@@H]3C[C@@H]4OB(O[C@@H]4C3)[C@H](C)NC2=O)[C@@H](C)O)c1 ... 41 nM

# next compound below
So what does the record say about IC50 for CCCCCCc1ccc(-c2nc3cc(C(=O)N[C@@H](CCCN)C(=O)N[C@H](C(=O)N[C@@H](C)C(=O)N[C@H]4Cc5cn(nn5)CCO[C@@H]5C[C@@H]6OB(O[C@@H]6C5)[C@H](C)NC4=O)[C@@H](C)O)ccc3[nH]2)cc1 ?
29 nM

----------
Activity for assorted molecules
Target: Signal peptidase I (Escherichia coli K-12) (UniProt P00803)
Sequence (P00803 whole entry): as above
Experiment: Inhibition of Escherichia coli type 1 signal peptidase lepB assessed as residual activity at 10 uM preincubated for 10 mins followed by Dabcyl-VGGTATAYGAFSRPGLE-(EDANS)-OH substrate addition measured after 2 hrs by FRET based assay (reference value: 100%)
Answer shape: numeric part, then the unit.

Reference set, count: 3
C[C@@H]1NC(=O)[C@@H](NC(=O)[C@H](C)NC(=O)[C@@H](NC(=O)[C@H](CCCN)NC(=O)c2ccc(-c3ccccc3)cc2)[C@@H](C)O)Cc2cn(nn2)CCO[C@@H]2C[C@@H]3OB1O[C@@H]3C2 ... 7.2%
CCCCCCc1ccc(-c2ccc(C(=O)N[C@@H](Cc3cnc[nH]3)C(=O)N[C@H](C(=O)N[C@@H](C)C(=O)N[C@H]3Cc4cn(nn4)CCCN4C[C@@H]5OB(O[C@@H]5C4)[C@H](C)NC3=O)[C@@H](C)O)cc2)cc1 ... 20.8%
CCCCCCc1ccc(-c2ccc(C(=O)N[C@@H](CCCNC(=N)N)C(=O)N[C@H](C(=O)N[C@@H](C)C(=O)N[C@H]3Cc4cn(nn4)CCCN4C[C@@H]5OB(O[C@@H]5C4)[C@H](C)NC3=O)[C@@H](C)O)cc2)cc1 ... 22.9%

# next molecule below
Form entry - test system: Signal peptidase I (Escherichia coli K-12) (UniProt P00803); read-out: Activity; molecule: CCCCCCc1ccc(-c2ccc(C(=O)N[C@@H](CCCN)C(=O)N[C@H](C(=O)N[C@@H](C)C(=O)N[C@H]3Cc4cn(nn4)CCO[C@@H]4C[C@@H]5OB(O[C@@H]5C4)[C@H](C)NC3=O)[C@@H](C)O)cc2)cc1
-2.5%

----------
Biological target: Signal peptidase I (Escherichia coli K-12) (UniProt P00803)
Assay: Inhibition of Escherichia coli type 1 signal peptidase lepB assessed as residual activity at 0.0195 uM preincubated for 10 mins followed by Dabcyl-VGGTATAYGAFSRPGLE-(EDANS)-OH substrate addition measured after 2 hrs by FRET based assay (reference value: 100%)
One threshold, 80%, splits the recorded Activity values: lower ones are 1, equal or higher ones are 0.

Item CCCCCCc1ccc(-c2ccc(C(=O)N[C@@H](CCCN)C(=O)N(C)[C@H](C(=O)N[C@@H](C)C(=O)N[C@H]3Cc4cn(nn4)CCCN4C[C@@H]5OB(O[C@@H]5C4)[C@H](C)NC3=O)[C@@H](C)O)cc2)cc1 : Activity beneath 80%, strictly?
1

Item CCCCCCC#Cc1cncc(C(=O)N[C@@H](CCCN)C(=O)N[C@H](C(=O)N[C@@H](C)C(=O)N[C@H]2Cc3cn(nn3)CCO[C@@H]3C[C@@H]4OB(O[C@@H]4C3)[C@H](C)NC2=O)[C@@H](C)O)c1 : Activity beneath 80%, strictly?
1

Item C[C@@H]1NC(=O)[C@@H](NC(=O)[C@H](C)NC(=O)[C@@H](NC(=O)[C@H](CCCN)NC(=O)C#Cc2ccc(-c3ccccc3)cc2)[C@@H](C)O)Cc2cn(nn2)CCO[C@@H]2C[C@@H]3OB1O[C@@H]3C2 : Activity beneath 80%, strictly?
0

Item CCCCCCc1ccc(-c2nc3cc(C(=O)N[C@@H](CCCN)C(=O)N[C@H](C(=O)N[C@@H](C)C(=O)N[C@H]4Cc5cn(nn5)CCO[C@@H]5C[C@@H]6OB(O[C@@H]6C5)[C@H](C)NC4=O)[C@@H](C)O)ccc3[nH]2)cc1 : Activity beneath 80%, strictly?
1

Item CCCCCCc1ccc(-c2ccc(C(=O)N[C@@H](CCCN)C(=O)N[C@H](C(=O)N[C@@H](C)C(=O)N[C@H]3Cc4cn(nn4)CCCN4C[C@@H]5OB(O[C@@H]5C4)[C@H](C)NC3=O)[C@@H](C)O)cc2)cc1 : Activity beneath 80%, strictly?
1

----------
Activity for assorted compounds
Biological target: Signal peptidase I (Escherichia coli K-12)
Assay: Inhibition of Escherichia coli type 1 signal peptidase lepB assessed as residual activity at 5 uM preincubated for 10 mins followed by Dabcyl-VGGTATAYGAFSRPGLE-(EDANS)-OH substrate addition measured after 2 hrs by FRET based assay (reference value: 100%)
Square brackets hold non-standard residues; d marks the D form. Peptide text beside a SMILES is read from it. * marks the point of attachment. Benzoyl(4-(4-hexylphenyl)) = CCCCCCc1ccc(-c2ccc(C(=O)*)cc2)cc1; boroAla = C[C@H](N*)B(O)O; Orn = NCCC[C@H](N)C(=O)O
Lab book: enter the figure in %, no units written.

Reference set, count: 5
CCCCCCc1ccc(-n2cc(C(=O)N[C@@H](CCCN)C(=O)N[C@H](C(=O)N[C@@H](C)C(=O)N[C@H]3Cc4cn(nn4)CCO[C@@H]4C[C@@H]5OB(O[C@@H]5C4)[C@H](C)NC3=O)[C@@H](C)O)ccc2=O)cc1 ... 15.8
CCCCCCc1ccc(-c2nc3cc(C(=O)N[C@@H](CCCN)C(=O)N[C@H](C(=O)N[C@@H](C)C(=O)N[C@H]4Cc5cn(nn5)CCO[C@@H]5C[C@@H]6OB(O[C@@H]6C5)[C@H](C)NC4=O)[C@@H](C)O)ccc3[nH]2)cc1 ... -0.1
C[C@@H]1NC(=O)[C@@H](NC(=O)[C@H](C)NC(=O)[C@@H](NC(=O)[C@H](CCCN)NC(=O)c2ccc(-c3ccccc3)cc2)[C@@H](C)O)Cc2cn(nn2)CCO[C@@H]2C[C@@H]3OB1O[C@@H]3C2 ... 9.7
CCCCCCc1ccc(-c2ccc(C(=O)N[C@@H](CCCN)C(=O)N[C@H](C(=O)N[C@@H](C)C(=O)N[C@H]3Cc4cn(nn4)CCO[C@@H]4C[C@@H]5OB(O[C@@H]5C4)[C@H](C)NC3=O)[C@@H](C)O)cc2)cc1 ... 4
CCCCCCc1ccc(-c2ccc(C(=O)N[C@@H](CCCN)C(=O)N[C@H](C(=O)N[C@@H](C)C(=O)N[C@@H](CC(N)=O)C(=O)N[C@@H](C)B(O)O)[C@@H](C)O)cc2)cc1 ({Benzoyl(4-(4-hexylphenyl))}-[Orn]TAN-boroAla) ... 6.7

So what does the record say about Activity for CCCCCCc1ccc(-c2ccc(C(=O)N[C@@H](CCCNC(=N)N)C(=O)N[C@H](C(=O)N[C@@H](C)C(=O)N[C@H]3Cc4cn(nn4)CCCN4C[C@@H]5OB(O[C@@H]5C4)[C@H](C)NC3=O)[C@@H](C)O)cc2)cc1 ?
27.7

So what does the record say about Activity for C[C@@H]1NC(=O)[C@@H](NC(=O)[C@H](C)NC(=O)[C@@H](NC(=O)[C@H](CCCN)NC(=O)C#Cc2ccc(-c3ccccc3)cc2)[C@@H](C)O)Cc2cn(nn2)CCO[C@@H]2C[C@@H]3OB1O[C@@H]3C2 ?
13.5

So what does the record say about Activity for CCCCCCC#Cc1cncc(C(=O)N[C@@H](CCCN)C(=O)N[C@H](C(=O)N[C@@H](C)C(=O)N[C@H]2Cc3cn(nn3)CCO[C@@H]3C[C@@H]4OB(O[C@@H]4C3)[C@H](C)NC2=O)[C@@H](C)O)c1 ?
2.3

----------
Target: Signal peptidase I (Escherichia coli K-12) (UniProt P00803)
Experiment: Inhibition of Escherichia coli type 1 signal peptidase lepB assessed as residual activity at 5 uM preincubated for 10 mins followed by Dabcyl-VGGTATAYGAFSRPGLE-(EDANS)-OH substrate addition measured after 2 hrs by FRET based assay (reference value: 100%)
measured.quantity: Activity (%)
Lab book: enter the figure in %, no units written.

Reference set, count: 2
CCCCCCc1ccc(-c2ccc(C(=O)N[C@@H](CCCN)C(=O)N[C@H](C(=O)N[C@@H](C)C(=O)N[C@H]3Cc4cn(nn4)CCCN4C[C@@H]5OB(O[C@@H]5C4)[C@H](C)NC3=O)[C@@H](C)O)cc2)cc1 ... 14.9
CCCCCCc1ccc(-c2ccc(C(=O)N[C@@H](CCCN)C(=O)N(C)[C@H](C(=O)N[C@@H](C)C(=O)N[C@H]3Cc4cn(nn4)CCCN4C[C@@H]5OB(O[C@@H]5C4)[C@H](C)NC3=O)[C@@H](C)O)cc2)cc1 ... 8

# next compound below
So what does the record say about Activity for C[C@@H]1NC(=O)[C@@H](NC(=O)[C@H](C)NC(=O)[C@@H](NC(=O)[C@H](CCCN)NC(=O)c2ccc(=O)n(-c3ccccc3)c2)[C@@H](C)O)Cc2cn(nn2)CCO[C@@H]2C[C@@H]3OB1O[C@@H]3C2 ?
26.8
